Entry source: PubChem BioAssay (NCATS)

Molecular target: Cytochrome P450 2C9 (Homo sapiens) (UniProt P11712)
Sequence (P11712 whole entry, looked up): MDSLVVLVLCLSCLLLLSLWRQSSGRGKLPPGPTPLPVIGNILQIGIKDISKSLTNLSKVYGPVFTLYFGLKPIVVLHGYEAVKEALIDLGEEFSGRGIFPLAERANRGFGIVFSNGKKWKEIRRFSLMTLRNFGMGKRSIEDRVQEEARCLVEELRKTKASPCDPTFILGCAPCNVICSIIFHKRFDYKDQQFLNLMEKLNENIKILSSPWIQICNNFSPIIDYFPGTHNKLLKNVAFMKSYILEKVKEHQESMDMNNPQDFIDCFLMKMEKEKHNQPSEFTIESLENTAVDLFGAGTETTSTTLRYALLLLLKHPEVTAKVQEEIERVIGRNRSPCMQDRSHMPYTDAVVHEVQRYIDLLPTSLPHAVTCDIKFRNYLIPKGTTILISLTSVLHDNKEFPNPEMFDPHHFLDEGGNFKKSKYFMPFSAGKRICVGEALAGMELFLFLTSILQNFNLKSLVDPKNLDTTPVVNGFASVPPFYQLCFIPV
Assay: qHTS Assay for Inhibitors and Substrates of Cytochrome P450 2C9 (AID 883); further: nearly all actives have a fitted effect of over 60% in size
Settings: recombinant CYP2C9, luciferin-H luminescence, 60 min; series mostly up to 57.1 µM
Inconclusive results are not listed. Activity calls are given as the source filed them. The call rests on the fitted dose curve; in most records, active means well fitted inhibition curve with a large enough effect; inconclusive means small, poorly fitted or top-dose-only effect; inactive means no such curve, though single readings can be large or run the other way.
Answer with one of the outcomes True (active), False (inactive)

# example entries with known answers
- COc1ccc(CNC(=O)/C=C\c2ccc3[nH]cc(CCN(C)C)c3c2)cc1: False
- CC(C)n1cnc2c(C(=O)N[C@H]3CN4CCC3CC4)cc(Cl)cc21: True
- Fc1ccc(C(OCCN2CCN(C/C=C\c3ccccc3)CC2)c2ccc(F)cc2)cc1: True
- CN1C(=O)CCS(=O)(=O)[C@H]1c1ccc(Cl)cc1: False
- O=C1Nc2ccc(I)cc2/C1=C/c1cc(Br)c(O)c(Br)c1: True

// return assay outcome for COC(=O)CN1CN(c2ccccc2)C2(CCN(Cc3ccc4ccccc4c3)CC2)C1=O
False

Per the records of this test, what outcome belongs to N[C@H](CP(=O)(O)O)C(=O)O ?
False

What call does the record list for CC1=C[C@@H]2c3cccc4[nH]cc(c34)C[C@H]2N(C)C1 ?
False

====

Tested on: CASKI
Assay: Primary qHTS to identify gynecologic anti-cancer compounds using libraries of approved drugs and bioactive compounds (AID 1345084); further: nearly all actives have a fitted effect of over 55% in size; further: potency means the concentration at half of the fitted maximal effect
Conditions: Gynecologic cancer cell panel viability, ATPlite luminescence, 48 h; series mostly up to 57.5 µM
Description: National Center for Advancing Translational Sciences [NCATS] Assay Overview: Chemotherapeutic drug responses vary from cancer to cancer and from patient to patient. […] ATPlite is a luminescence based assay reliant on the conversion of a luciferase substrate to light in the presence of ATP. As a cytotoxic compound will suppress growth and decrease the number of cells, the concentration of ATP will decrease, and less light signal will be detected in the well. […]
Inconclusive results are not listed. Calls of active or inactive are those of the source. Calls come from the whole dose curve; as a rule, active = well fitted cell-killing curve with a large enough effect; inconclusive = small, poorly fitted or top-dose-only effect, or effect the other way; inactive = flat fitted curve, though single readings scatter.
experimental_endpoint: Potency

For orientation, consider the following solved cases.
* COc1cc(O)c2c(c1)/C=C/C[C@@H](O)[C@@H](O)C(=O)CCC[C@H](C)OC2=O | inactive
* C=CC(C)(C)c1[nH]c2c(CC=C(C)C)cc(CC=C(C)C)cc2c1C[C@@H]1NC(=O)[C@H](C)NC1=O | inactive
* C[C@]12CC[C@H](O)C[C@H]1CC[C@@H]1[C@@H]2[C@H](O)C(=O)[C@]2(C)[C@@H](c3ccc(=O)oc3)CC[C@]12O | 398 nM (active)
* CO[C@H]1C[C@H](O[C@H]2CC[C@]3(CO)[C@H]4CC[C@]5(C)[C@@H](C6=CC(=O)OC6)CC[C@]5(O)[C@@H]4CC[C@]3(O)C2)O[C@H](C)[C@H]1O | 891 nM (active)
* C[C@]12CCC(=O)C=C1CC[C@@H]1[C@@H]2[C@@H](O)C[C@]2(C)C(=O)CC[C@@H]12 | inactive

Here is the next item to consider.
Consider the compound CC[C@H]1C[C@@H]2CC[C@@H](O2)[C@@H](C)C(=O)O[C@H](CC)C[C@H]2CC[C@H](O2)[C@H](C)C(=O)O[C@@H](C)C[C@@H]2CC[C@@H](O2)[C@@H](C)C(=O)O[C@H](CC)C[C@H]2CC[C@H](O2)[C@H](C)C(=O)O1 and give its recorded Potency.
447 nM (active)
